Listed next: entries and their corresponding Difference.
system: NCI-H292 lung cancer cells; experiment: FDA drug screening, complete media vs cholesterol-free media without statin (TABLE 1); type: cell-based, human; settings: Complete minus Cholesterol-free; >0 enhanced anti-cancer activity, about 0 neutral, <0 antagonist
Please give the numeric answer without any surrounding text.

Q: Indicate its recorded Difference; the compound in question is CC1(C)O[C@@H]2C[C@H]3[C@@H]4C[C@H](F)C5=CC(=O)C=C[C@]5(C)[C@H]4[C@@H](O)C[C@]3(C)[C@]2(C(=O)CO)O1 [Flunisolide]
Result: −0.06

Q: Indicate its recorded Difference; the compound in question is "CCOCCn1c(N2CCCN(C)CC2)nc2ccccc21"
Result: −0.27

Q: Indicate its recorded Difference; the compound in question is "O=C(O)c1cc(/N=N/c2ccc(S(=O)(=O)Nc3ccccn3)cc2)ccc1O"
Result: −0.20

Q: Indicate its recorded Difference; the compound in question is "CC(C)(CCCCCC(O)CCCCCC(C)(C)C(=O)O)C(=O)O"
Result: −0.25

Q: Indicate its recorded Difference; the compound in question is Cc1onc(-c2c(F)cccc2Cl)c1C(=O)N[C@@H]1C(=O)N2[C@@H]1SC(C)(C)[C@@H]2C(=O)O [Flucloxacillin sodium]
Result: −0.29

Q: Indicate its recorded Difference; the compound in question is C#CCN[C@H]1CCc2ccccc21 [(S)-Rasagiline]
Result: 0.05

###

Listed next: entries and their corresponding Complete.
system: NCI-H292 lung cancer cells; assay: FDA drug screening, complete media vs cholesterol-free media without statin (TABLE 1); assay type: cell-based, human; conditions: NCI-H292 cells in complete media
Counter-ions that a name gives are not always drawn.
Please give the numeric answer without any surrounding text.

// worked examples, Complete included
compound | Complete
CN(C)[C@@H]1C(O)=C(C(N)=O)C(=O)[C@@]2(O)C(O)=C3C(=O)c4c(O)ccc(Cl)c4[C@@H](O)[C@H]3C[C@@H]12 [Demeclocycline (hydrochloride)] | 0.9395
CCCCCCCCCCCC1=C(O)C(=O)C=C(O)C1=O | 1.082
CC1=C(/C=C/C(C)=C/C=C/C(C)=C/C(=O)O)C(C)(C)CCC1 | 0.5841
C[C@@H]1CN(c2c(F)c(N)c3c(=O)c(C(=O)O)cn(C4CC4)c3c2F)C[C@H](C)N1 | 0.9275
Cc1oc(=O)oc1COC(=O)C1=C([C@H]2CCCO2)S[C@@H]2[C@@H]([C@@H](C)O)C(=O)N12 [Faropenem daloxate] | 0.9042

Q: Specify the recorded Complete for CN(C)N(C)C(=O)[C@@]1(Cc2ccccc2)CCCN(C(=O)[C@@H](Cc2c[nH]c3ccccc23)NC(=O)C(C)(C)N)C1 [Anamorelin (hydrochloride)] , system: NCI-H292 lung cancer cells.
Result: 0.9877

Q: Specify the recorded Complete for Cc1ncc([N+](=O)[O-])n1CC(O)CCl (stereo not shown) , system: NCI-H292 lung cancer cells.
Result: 1.058

Q: Specify the recorded Complete for Cc1cccc(N2CC(CO)OC2=O)c1 (stereo not shown) , system: NCI-H292 lung cancer cells.
Result: 1.099

Q: Specify the recorded Complete for CC(C)NC[C@H](O)COc1ccc(CCOCC2CC2)cc1 [Levobetaxolol (hydrochloride)] , system: NCI-H292 lung cancer cells.
Result: 0.977

Q: Specify the recorded Complete for "O=[N+]([O-])C(Br)(CO)CO" , system: NCI-H292 lung cancer cells.
Result: 0.9389

Q: Specify the recorded Complete for O=C(NC(Cc1cc(=O)[nH]c2ccccc12)C(=O)O)c1ccc(Cl)cc1 (stereo not shown) [Rebamipide] , system: NCI-H292 lung cancer cells.
Result: 1.132

Q: Specify the recorded Complete for "COCCCOc1cc(C[C@@H](C[C@H](N)[C@@H](O)C[C@H](C(=O)NCC(C)(C)C(N)=O)C(C)C)C(C)C)ccc1OC" , system: NCI-H292 lung cancer cells.
Result: 1.084

Q: Specify the recorded Complete for CC(C(=O)O)c1ccc(CC2CCCC2=O)cc1 (stereo not shown) , system: NCI-H292 lung cancer cells.
Result: 1.039

Q: Specify the recorded Complete for "COc1ccc(-c2cc(C(F)F)nn2-c2ccc(S(N)(=O)=O)cc2)cc1F" , system: NCI-H292 lung cancer cells.
Result: 1.181

Q: Specify the recorded Complete for CC(C)(C)C(=O)OCOC(=O)[C@@H]1N2C(=O)[C@@H](/N=C/N3CCCCCC3)[C@H]2SC1(C)C [Pivmecillinam (hydrochloride)] , system: NCI-H292 lung cancer cells.
Result: 1.161

Q: Specify the recorded Complete for COc1cc(C(=O)NC2CCCNC2)cc(OC)c1OC (stereo not shown) [Troxipide] , system: NCI-H292 lung cancer cells.
Result: 1.111

###

test system: NCI-H292 lung cancer cells; assay: FDA drug screening, complete media vs cholesterol-free media without statin (TABLE 1); format: cell-based, human; conditions: NCI-H292 cells, complete media
Threshold rule: Complete greater than or equal to 0.8 is label 1; below that, label 0.

molecule | class_name
COc1ccc2cc([C@H](C)C(=O)O)ccc2c1 [Naproxen (sodium)] | label 1
C=CC(=O)N1CCC([C@@H]2CCNc3c(C(N)=O)c(-c4ccc(Oc5ccccc5)cc4)nn32)CC1 | label 0
CCc1cc2c(cc1N1CCC(N3CCOCC3)CC1)C(C)(C)c1[nH]c3cc(C#N)ccc3c1C2=O | label 1

Q: Please tell me: is the molecule "O=c1ccc2ccc(OCCCCN3CCN(c4cccc5sccc45)CC3)cc2[nH]1" at or over 0.8 in terms of Complete?
Result: label 0

Q: Please tell me: is the molecule CNCCc1ccccn1.CS(=O)(=O)O.CS(=O)(=O)O [Betahistine (mesylate)] at or over 0.8 in terms of Complete?
Result: label 1

Q: Please tell me: is the molecule "CN1C(=O)C[C@@H](C(=O)N[C@@H](Cc2c[nH]cn2)C(=O)N2CCC[C@H]2C(N)=O)NC1=O" at or over 0.8 in terms of Complete?
Result: label 1

Q: Please tell me: is the molecule "COc1ccc2c3c1O[C@H]1C[C@@H](O)C=C[C@@]31CCN(C)C2" at or over 0.8 in terms of Complete?
Result: label 1

###

test system: NCI-H292 lung cancer cells; assay: FDA drug screening, complete media vs cholesterol-free media without statin (TABLE 1); assay type: cell-based, human; conditions: complete vs cholesterol-free media; >0 enhanced anti-cancer activity, about 0 neutral, <0 antagonist
Counter-ions that a name gives are not always drawn.
Listed next: entries and their corresponding Difference.
Please give the numeric answer without any surrounding text.

// worked examples, Difference included
molecule | Difference
CC(C)(C)c1ccc(CN2CCN(C(c3ccccc3)c3ccc(Cl)cc3)CC2)cc1 (stereo not shown) [Buclizine (dihydrochloride)] | 0.71
CN(C)CCC=C1c2ccccc2C=Cc2ccccc21 [Cyclobenzaprine (hydrochloride)] | 0.18
NCCCC(O)(P(=O)(O)O)P(=O)(O)O [Alendronate (sodium hydrate)] | 0.15

Next, consider the following molecule.
Q: Indicate its recorded Difference; the molecule in question is Cc1ccc(C(=O)c2ccc(CC(=O)O)n2C)cc1 [Tolmetin (sodium dihydrate)]
Result: 0.56

###

Listed next: entries and their corresponding Complete.
test system: NCI-H292 lung cancer cells; test: FDA drug screening, complete media vs cholesterol-free media without statin (TABLE 1); assay type: cell-based, human; conditions: NCI-H292 cells, FDA drug library screen, complete media
Peptide text beside a SMILES is read from it.
Please give the numeric answer without any surrounding text.

// worked examples, Complete included
compound | experimental_target | observed_measurement
CCNC(=O)[C@@H]1CCCN1C(=O)[C@H](CCCNC(=N)N)NC(=O)[C@H](CC(C)C)NC(=O)CNC(=O)[C@H](Cc1ccc(O)cc1)NC(=O)[C@H](CO)NC(=O)[C@H](Cc1c[nH]c2ccccc12)NC(=O)[C@H](Cc1c[nH]cn1)NC(=O)[C@@H]1CCC(=O)N1 [Fertirelin] (HELM PEPTIDE1{[Glp].H.W.S.Y.G.L.R.P.[CCN[*:1]]}$$$$V2.0) | NCI-H292 lung cancer cells | 0.8642
CO[C@@]1(NC(=O)Cc2cccs2)C(=O)N2C(C(=O)O)=C(COC(N)=O)CS[C@@H]21 [Cefoxitin] | NCI-H292 lung cancer cells | 0.755
CO[C@H]1O[C@H](COS(=O)(=O)O)[C@@H](O[C@@H]2O[C@@H](C(=O)O)[C@@H](O[C@H]3O[C@H](COS(=O)(=O)O)[C@@H](O[C@@H]4O[C@H](C(=O)O)[C@@H](O[C@H]5O[C@H](COS(=O)(=O)O)[C@@H](O)[C@H](O)[C@H]5NS(=O)(=O)O)[C@H](O)[C@H]4O)[C@H](OS(=O)(=O)O)[C@H]3NS(=O)(=O)O)[C@H](O)[C@H]2OS(=O)(=O)O)[C@H](O)[C@H]1NS(=O)(=O)O [Fondaparinux (sodium)] | NCI-H292 lung cancer cells | 1

Next, consider the following compound.
Q: Indicate its recorded Complete; the compound in question is C=C[C@@H]1C[C@]1(NC(=O)[C@@H]1C[C@@H]2CN1C(=O)[C@H](C(C)(C)C)NC(=O)O[C@@H]1C[C@H]1CCCCCc1nc3ccc(OC)cc3nc1O2)C(=O)NS(=O)(=O)C1CC1.O [Grazoprevir]
Result: 0.9626
